Entries annotated with measured MIC
# Test system: Moraxella catarrhalis A894
# assay-procedure: Bacterial growth minimal inhibitory concentration, microdilution
# Assay type: cell-based
# condition-notes: quinolone-sensitive strain, cation-adjusted Mueller Hinton Broth
# Procedure: Minimal Inhibitory Concentrations (MICs; mg/l) were determined in cation-adjusted Mueller Hinton Broth by a microdilution method following the description given in “Methods for Dilution Antimicrobial Susceptibility Tests for Bacteria that Grow Aerobically”, Approved standard, 7th ed., Clinical and Laboratory Standards Institute (CLSI) Document M7-A7, Wayne, Pa., USA, 2006. All Example compounds were tested against several Gram positive and especially Gram negative bacteria. […]
quantity: MIC (µg/mL)

[[record]]
structure_string = "CCn1cc(C(=O)O)c(=O)c2cc(F)c(N[C@H]3CC[C@H](CNCc4ccc5c(n4)NC(=O)CS5)CC3)nc21"
reported_result = 0.031

[[record]]
structure_string = "O=C1CSc2ccc(CNCCN3CCN(c4cc5c(cc4F)c(=O)c(C(=O)O)cn5C4CC4)CC3)nc2N1"
reported_result = 1

[[record]]
structure_string = "O=C1CSc2ccc(CNC3CCN(c4nc5c(cc4F)c(=O)c(C(=O)O)cn5C4CC4)CC3)nc2N1"
reported_result = 0.063

[[record]]
structure_string = "Cn1cc(C(=O)O)c(=O)c2cc(F)c(N3CCC(CCNCc4ccc5c(n4)NC(=O)CS5)CC3)nc21"
reported_result = 0.031

[[record]]
structure_string = "Cn1cc(C(=O)O)c(=O)c2cc(F)c(N[C@H]3CC[C@H](CNCc4ccc5c(n4)NC(=O)CS5)CC3)nc21"
reported_result = 0.031

[[record]]
structure_string = "O=C1CSc2ccc(CNC3CCN(CCc4nc5c(cc4F)c(=O)c(C(=O)O)cn5C4CC4)CC3)nc2N1"
reported_result = 0.5

[[record]]
structure_string = "O=C1CSc2ccc(CN[C@H]3CC[C@H](Nc4nc5c(cc4F)c(=O)c(C(=O)O)cn5C4CC4)CC3)nc2N1"
reported_result = 0.25


----------
# System: Moraxella catarrhalis A894
# assay-procedure: Bacterial growth minimal inhibitory concentration, microdilution
# Assay type: cell-based
# condition-notes: quinolone-sensitive strain, cation-adjusted Mueller Hinton Broth
Entries annotated with measured MIC
quantity: MIC (µg/mL)

[[record]]
molecule = "Cn1cc(C(=O)O)c(=O)c2cc(F)c(N3CCC(CCNCc4ccc5c(n4)NC(=O)CO5)CC3)nc21 [Example 16]"
study_target = "Moraxella catarrhalis A894"
reported_result = 0.125

[[record]]
molecule = "O=C1COc2ccc(CNCCN3CCN(c4nc5c(cc4F)c(=O)c(C(=O)O)cn5C4CC4)CC3)nc2N1 [Example 12]"
study_target = "Moraxella catarrhalis A894"
reported_result = 1

[[record]]
molecule = "O=C1CSc2ccc(CNCCC3CCN(c4nc5c(cc4F)c(=O)c(C(=O)O)cn5C4CC4)CC3)nc2N1 [Example 5]"
study_target = "Moraxella catarrhalis A894"
reported_result = 0.125

[[record]]
molecule = "O=C1COc2ccc(CNC[C@H]3CC[C@H](Nc4nc5c(cc4F)c(=O)c(C(=O)O)cn5C4CC4)CC3)nc2N1 [Example 8]"
study_target = "Moraxella catarrhalis A894"
reported_result = 0.25

[[record]]
molecule = "O=C1CSc2ccc(CNCC3CCN(Cc4nc5c(cc4F)c(=O)c(C(=O)O)cn5C4CC4)CC3)nc2N1 [Example 9]"
study_target = "Moraxella catarrhalis A894"
reported_result = 1

[[record]]
molecule = "O=C1CSc2ccc(CN3CCC(CCNc4nc5c(cc4F)c(=O)c(C(=O)O)cn5C4CC4)CC3)nc2N1 [Example 6]"
study_target = "Moraxella catarrhalis A894"
reported_result = 0.5

[[record]]
molecule = "O=C1CSc2ccc(CNCC3CCN(c4nc5c(cc4F)c(=O)c(C(=O)O)cn5C4CC4)CC3)nc2N1 [Example 7]"
study_target = "Moraxella catarrhalis A894"
reported_result = 0.031

[[record]]
molecule = "Cn1cc(C(=O)O)c(=O)c2cc(F)c(N[C@H]3CC[C@H](CNCc4ccc5c(n4)NC(=O)CO5)CC3)nc21 [Example 14]"
study_target = "Moraxella catarrhalis A894"
reported_result = 0.063

[[record]]
molecule = "O=C1CSc2ccc(CNCCN3CCN(c4nc5c(cc4F)c(=O)c(C(=O)O)cn5C4CC4)CC3)nc2N1 [Example 4]"
study_target = "Moraxella catarrhalis A894"
reported_result = 0.25

[[record]]
molecule = "O=C1CSc2ccc(CNC[C@H]3CC[C@H](Nc4nc5c(cc4F)c(=O)c(C(=O)O)cn5C4CC4)CC3)nc2N1 [Example 1]"
study_target = "Moraxella catarrhalis A894"
reported_result = 0.125

